Tested on: VV-GMCSF-Lact intact vaccinia virus particles (surface protein target not identified) (Vaccinia virus, LIVP strain (recombinant VV-GMCSF-Lact))
Test: flow cytometry
readout: pKd
Reminder that pKd means the negative base-10 logarithm of the concentration expressed in mol/L.

What does the record list as pKd for GTAACCAGCCATCACCCTATTATCTCATTATCTCGTTTTCCCTATGCGGCATAGG [NV14t_56 (8NV37_14 variant 2_12-67)] ?
6.45

Source: paper PMC10892425
